# System: Staphylococcus aureus USA 300
recorded_endpoint: MIC

Lookup result for NC(N)=NCCC[C@H](N)C(=O)N[C@@H](Cc1ccc(O)cc1)C(=O)N[C@@H](Cc1cnc[nH]1)C(=O)O ; measured MIC: ≥ 100 µM

---

# Test system: Pseudomonas aeruginosa ATCC 10145
# experiment_summary: ≥ marks a high value that may be exact or a test limit, other limits are often not marked, values filed in µg/mL are converted to µM
recorded_endpoint: MIC

smiles_representation | MIC
CC(C)C[C@H](NC(=O)[C@H](CCCCN)NC(=O)[C@H](CC(C)C)NC(=O)[C@H](CCCCN)NC(=O)[C@H](CC(C)C)NC(=O)[C@H](CCCCN)NC(=O)[C@H](CC(C)C)NC(=O)[C@H](CCCCN)NC(=O)[C@H](CC(C)C)NC(=O)[C@H](CCCCN)NC(=O)[C@H](CC(C)C)NC(=O)[C@H](CCCCN)NC(=O)[C@H](CC(C)C)NC(=O)[C@H](CCCCN)NC(=O)[C@H](CC(C)C)NC(=O)[C@H](CCCCN)NC(=O)[C@@H](N)CC(C)C)C(=O)N[C@@H](CCCCN)C(=O)O | ≥ 36.5 µM
C[C@H](N)C(=O)N[C@@H](C)C(=O)N[C@@H](Cc1c[nH]c2ccccc12)C(=O)N[C@@H](CCCCN)C(=O)N[C@@H](CCCCN)C(=O)N[C@@H](C)C(=O)N[C@@H](C)C(=O)N[C@@H](CCCCN)C(=O)N[C@@H](CCCCN)C(=O)N[C@@H](C)C(=O)N[C@@H](C)C(=O)N[C@@H](CCCCN)C(=O)N[C@@H](CO)C(=O)N[C@@H](C)C(=O)N[C@@H](CCCCN)C(=O)N[C@@H](CCCCN)C(=O)N[C@@H](C)C(=O)NCC(N)=O | 15 µM
CC(C)C[C@H](NC(=O)[C@H](C)NC(=O)[C@H](CC(C)C)NC(=O)[C@H](C)NC(=O)[C@H](CC(C)C)NC(=O)[C@H](C)NC(=O)[C@H](CC(C)C)NC(=O)[C@H](C)NC(=O)[C@H](CC(C)C)NC(=O)[C@H](C)NC(=O)[C@H](CC(C)C)NC(=O)[C@H](C)NC(=O)[C@H](CC(C)C)NC(=O)[C@H](C)NC(=O)[C@H](CC(C)C)NC(=O)[C@H](C)NC(=O)[C@H](CC(C)C)NC(=O)[C@H](C)NC(=O)[C@H](CC(C)C)NC(=O)[C@H](C)NC(=O)[C@@H](N)CC(C)C)C(=O)N[C@@H](C)C(=O)O | ≥ 122 µM

Moving on to another molecule below.
Lookup result for NCCCC[C@H](NC(=O)[C@H](Cc1ccccc1)NC(=O)[C@H](CCCCN)NC(=O)[C@H](CCCCN)NC(=O)[C@H](Cc1ccccc1)NC(=O)[C@H](CCCCN)NC(=O)[C@H](CCCCN)NC(=O)[C@H](Cc1ccccc1)NC(=O)[C@H](CCCCN)NC(=O)[C@H](CCCCN)NC(=O)[C@H](Cc1ccccc1)NC(=O)[C@H](CCCCN)NC(=O)[C@H](CCCCN)NC(=O)[C@H](Cc1ccccc1)NC(=O)[C@H](CCCCN)NC(=O)[C@H](CCCCN)NC(=O)[C@H](Cc1ccccc1)NC(=O)[C@@H](N)CCCCN)C(=O)O ; measured MIC: ≥ 51.2 µM

# credit: DBAASP
